Measured photoluminescence quantum yield values are reported for all entries that follow.
- EXPERIMENT_DESCRIPTION: photoluminescence quantum yield (fraction); solvent given as SMILES
- COND: in Cc1ccccc1

The examples below pair each entry with its known result.
1) COc1cc(C2=c3c(c4ccc(C(C)(C)C)cc4c4c(OC)c(OC)c(OC)cc34)=[N+]3C2=Nc2c(-c4cc(OC)c(OC)c(OC)c4)c4c5cc(OC)c(OC)c(OC)c5c5cc(C(C)(C)C)ccc5c4n2[B-]3(F)F)cc(OC)c1OC	0.001
2) c1ccc2c(c1)[nH]c1cccnc12	0.099
3) COc1ccc(-c2cc3c(o2)=CC2=C(C(F)(F)F)c4cc5oc(-c6ccc(OC)cc6)cc5n4[B-](F)(F)[N+]=32)cc1	0.58
4) Cc1cc(C)c(B(c2ccc(-c3nc4c5ccccc5c5ccccc5c4[nH]3)cc2)c2c(C)cc(C)cc2C)c(C)c1	0.92
5) CCCCCCCCN1c2ccc(C#Cc3ccc(C(F)(F)F)cc3)cc2Sc2cc(C=O)ccc21	0.62
6) c1ccc2c(c1)[nH]c1c3[nH]c4ccccc4c3c3nsnc3c21	0.07
7) c1cc2c3c(cccc3c1)NC(c1ccc3ccc4cccc5ccc1c3c45)N2	0.51

Please fill in: photoluminescence quantum yield reported for C(=C\c1ccc(N(c2ccc(/C=C/c3ccc(-c4cc(-c5ccccc5)nc(-c5ccccc5)c4)cc3)cc2)c2ccc(/C=C/c3ccc(-c4cc(-c5ccccc5)nc(-c5ccccc5)c4)cc3)cc2)cc1)/c1ccc(-c2cc(-c3ccccc3)nc(-c3ccccc3)c2)cc1 = 0.14

Hello, the source for this data is the Deep4Chem optical property database, in case you need it.
